Sourced from PubChem BioAssay (Tox21)

# test: A CellTox Green Cytotoxicity Assay to monitor cytotoxicity in HEK293 cells - 0 hour (AID 1224869); further: on the % scale 0 is the no-effect control and ±100 the full control effect; nearly all actives have a fitted effect of over 50% in size
# study conditions: CellTox Green fluorescence; series mostly up to 76.8 µM
Activity calls are given as the source filed them. The call rests on the fitted dose curve; in most records, active means well fitted activation curve with a large enough effect in the repeat runs; inconclusive means weak or mixed curves; inactive means flat fitted curve, though single readings scatter.
metric: cytotoxicity

{"compound": "CN(C)CCn1nnnc1SCC1=C(C(=O)O)N2C(=O)[C@@H](NC(=O)Cc3csc(N)n3)[C@H]2SC1", "metric": "cytotoxicity", "obs value": "inactive"}
{"compound": "FC(F)(F)C(F)(F)C(F)(F)C(F)(F)C(F)(F)C(F)(F)C(F)(F)C(F)(F)C(F)(F)C(F)(F)F", "metric": "cytotoxicity", "obs value": "-6.11% [at 6.97 µM] (inactive)"}
{"compound": "CCN(CC)C(=O)c1ccc(O)c(OC)c1", "metric": "cytotoxicity", "obs value": "inactive"}
{"compound": "CCN1CCCC1CNC(=O)c1cc(S(N)(=O)=O)ccc1OC (stereo not given)", "metric": "cytotoxicity", "obs value": "inactive"}
{"compound": "NC(=O)c1ncn([C@@H]2O[C@H](CO)[C@@H](O)[C@H]2O)c1N", "metric": "cytotoxicity", "obs value": "inactive"}
